Can you tell me Activity for the items I'm about to list?
- Tested on: Spermatozoa
- measurement.protocol: Spermicidal activity against human spermatozoa assessed as immobilization measured for 60 seconds by visual scoring
- Type: functional
- Parameters: concentration or dose not given beside the values
Remember to follow the number with its unit.

Value sought for every listed compound: Activity.
1. OC(CCn1ccnc1)c1ccccc1 (stereo unspecified)
2. Cc1nccn1CCC(O)c1ccccc1 (stereo unspecified)
3. C(=C\c1ccccc1)/Cn1ccnc1
4. FC(F)(F)c1ccc(OC(CCn2cncn2)c2ccccc2)cc1 (stereo unspecified)
5. O=[N+]([O-])c1cn(C/C=C/c2ccccc2)cn1
6. O=C(CCn1cnc([N+](=O)[O-])c1)c1ccccc1

RESULT:
1. 90%
2. 100%
3. 100%
4. 100%
5. 80%
6. 100%

All figures here come from ChEMBL document CHEMBL1641578.
